Please provide measured Ki for the entries that follow.
Molecular target: C5a Receptor (Homo sapiens, UniProt P21730)
Construct: 2.5-25 ug/mL of purified PMNL membrane fragments; endogenous in cells; host or cells: PMNL (polymorphonuclear leukocytes), purified membrane fragments
Sequence (P21730 whole entry, the tested form may be a part): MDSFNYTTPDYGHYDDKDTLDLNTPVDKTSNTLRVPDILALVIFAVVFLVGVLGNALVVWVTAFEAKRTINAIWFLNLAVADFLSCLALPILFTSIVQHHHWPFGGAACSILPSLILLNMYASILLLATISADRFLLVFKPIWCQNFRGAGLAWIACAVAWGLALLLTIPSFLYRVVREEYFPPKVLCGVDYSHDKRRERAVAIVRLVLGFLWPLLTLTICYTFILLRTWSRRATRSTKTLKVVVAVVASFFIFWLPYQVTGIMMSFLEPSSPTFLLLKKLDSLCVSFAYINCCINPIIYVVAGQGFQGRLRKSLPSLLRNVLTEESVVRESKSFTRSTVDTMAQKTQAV
Assay: Anaphylatoxin Receptor Binding Ki Determination (inhibition of 125I-C5a binding to PMNL membrane fragments)
Details: 0.03-1 nM 125I-C5a; 2.5-25 ug/mL purified PMNL membrane fragments; filtration; read-out: In vitro C5a Receptor Binding Potency Ki
Numbered stars: 1 amine (or outer) side, 2 acyl side, 3 side chain; on linkers, the order of the positions; unused ones are H or OH. Square brackets hold non-standard residues; d marks the D form. Peptide text beside a SMILES is read from it. NMeF = CN[C@@H](Cc1ccccc1)C(=O)O; NMeGABA = CN(CCCC(=O)[*:2])[*:1]; Cha = N[C@@H](CC1CCCCC1)C(=O)O; dCha = N[C@H](CC1CCCCC1)C(=O)O; Ahx = NCCCCCC(=O)O
I only need the number, in µM, no unit after it.

So for CC(C)C[C@H](NC(=O)[C@H](CCC(N)=O)NC(=O)CCCCCNC(=O)[C@@H](N)Cc1c[nH]cn1)C(=O)NCC(=O)N[C@@H](CCCNC(=N)N)C(=O)O [Example 4] (H-H[Ahx]QLGR-OH) , the logged Ki turned out to be 180

So for CN[C@@H](Cc1ccccc1)C(=O)N[C@@H](CCCCN)C(=O)N1CCC[C@H]1CN[C@H](CC1CCCCC1)C(=O)N[C@@H](Cc1ccccc1)C(=O)N[C@H](CCCNC(=N)N)C(=O)O , the logged Ki turned out to be 0.36

So for CN[C@@H](Cc1ccccc1)C(=O)N[C@@H](CCCCN)C(=O)N(C)[C@@H](Cc1ccccc1)C(=O)N[C@H](CC1CCCCC1)C(=O)N[C@@H](CC1CCCCC1)C(=O)N[C@H](CCCNC(=N)N)C(=O)O [Example 61] (H-[NMeF]K[NMeF][dCha][Cha][dR]-OH) , the logged Ki turned out to be 0.22

So for CN[C@@H](Cc1ccccc1)C(=O)N[C@@H](CCCCN)C(=O)N(C)CCCC(=O)N[C@@H](Cc1ccccc1)C(=O)N[C@H](CCCNC(=N)N)C(=O)O [Example 121] (H-[NMeF]K[NMeGABA]F[dR]-OH) , the logged Ki turned out to be 21
